Assay: in vitro
Conditions: male, ICR, mouse, microsomes, pH 7.4
PROPERTY MEASURED: microsomal CLint at 1 μM

Can you share its microsomal CLint at 1 μM? I mean this molecule: CS(=O)(=O)c1ccc(C(C[C@H]2C[C@@H](F)[C@@H](F)C2)C(=O)Nc2nccs2)cc1 (single isomer, unassigned; (-)) ≤ 50 µL/min/mg

###

Assay: In vitro liver microsome metabolic stability test, Method 1, human
Type: in vitro ADME
Conditions: microsomes, pH 7.4
PROPERTY MEASURED: microsomal CLint at 1 μM

So what does the record say about microsomal CLint at 1 μM for CS(=O)(=O)c1ccc(C(C[C@H]2C[C@@H](F)[C@@H](F)C2)C(=O)Nc2nccs2)cc1 (single isomer, unassigned; (-)) ? ≤ 60 µL/min/mg

###

Assay: In vitro liver microsome metabolic stability test, Method 1, murine
Type: in vitro ADME, mice
Settings: male, ICR, mouse, microsomes, pH 7.4
PROPERTY MEASURED: microsomal CLint at 1 μM

# query: microsomal CLint at 1 μM of entry CS(=O)(=O)c1ccc(C(C[C@H]2C[C@@H](F)[C@@H](F)C2)C(=O)Nc2nccs2)cc1 (single isomer, unassigned; (-)) [Compound No. 1] ≤ 60 µL/min/mg
